The measurements presented in this section are drawn from patent US20200010457A1.

Tested on: human σ1 receptor and human μ-opioid receptor
Assay: Human σ1 receptor ([3H](+)-pentazocine) and human μ-opioid receptor ([3H]-DAMGO) radioligand assays, reported as one combined score
Assay type: binding
Set-up: key: +: Both Ki-μ and Ki-σ1>=1000 nM; ++: One Ki<1000 nM while the other Ki is >=1000 nM; +++: Both Ki-μ and Ki-σ1<1000 nM; ++++: Both Ki-μ and Ki-σ1<500 nM
Details: combined class for Ki-σ1 (transfected HEK-293 membranes) and Ki-μ (transfected CHO-K1 cell membranes)
reported_endpoint: σ1 and μ binding

Reference set (4 entries):
[
  {
    "structure": "CCC(=O)N(CC1(CCCN(C)CC(C)C)CCOCC1)c1cccc(C(F)(F)F)n1",
    "measurement_target": "human σ1 receptor and human μ-opioid receptor",
    "σ1 and μ binding": "++"
  },
  {
    "structure": "CCOCCN(C)CCN(C)C1(CN(C(=O)CC)c2cccc(C(F)(F)F)n2)CCOCC1",
    "measurement_target": "human σ1 receptor and human μ-opioid receptor",
    "σ1 and μ binding": "++"
  },
  {
    "structure": "CCC(=O)N(CC1(N(C)CCN(C)Cc2ccccc2)CCOCC1)c1cccc(C(F)(F)F)n1",
    "measurement_target": "human σ1 receptor and human μ-opioid receptor",
    "σ1 and μ binding": "++"
  },
  {
    "structure": "CCC(=O)N(CC1(CCCNCC(C)C)CCOCC1)c1cccc(C(F)(F)F)n1",
    "measurement_target": "human σ1 receptor and human μ-opioid receptor",
    "σ1 and μ binding": "++"
  }
]

Below: the item to evaluate.
Enquiry: Missing value: σ1 and μ binding, human σ1 receptor and human μ-opioid receptor, entry `CCC(=O)N(CC1(N(C)CCNCC(C)C)CCOCC1)c1cccc(C(F)(F)F)n1` . Fill in?
Return: ++

###

Biological target: human σ1 receptor and human μ-opioid receptor
Experiment: Human σ1 receptor ([3H](+)-pentazocine) and human μ-opioid receptor ([3H]-DAMGO) radioligand assays, reported as one combined score
Settings: combined class for Ki-σ1 (transfected HEK-293 membranes) and Ki-μ (transfected CHO-K1 cell membranes); read-out: σ1 and μ binding
pKi: −log10 of the molar value.
reported_endpoint: pKi

[
  {
    "structure": "CCOCCNCCCC1(CN(C(=O)CC)c2cccc(C(F)(F)F)n2)CCOCC1",
    "reported_result": "> 6.00"
  },
  {
    "structure": "CCC(=O)N(CC1(N(C)CCN(Cc2ccccc2)CC(C)C)CCOCC1)c1cccc(C(F)(F)F)n1",
    "reported_result": "≤ 6.00"
  },
  {
    "structure": "CCC(=O)N(CC1(CCNCC(C)C)CCOCC1)c1cccc(C(F)(F)F)n1",
    "reported_result": "≤ 6.00"
  }
]

Enquiry: For the compound shown here, `CCOCCN(C)CCCC1(CN(C(=O)CC)c2cccc(C(F)(F)F)n2)CCOCC1` , give the reported pKi.
Return: ≤ 6.00
